- Study system: bovine serum albumin (BSA) (Bos taurus)
- Construct: Bovine serum albumin (BSA), one of the major components in plasma protein; purchased Sigma Aldrich Bangalore
- Sequence (P02769 25-607): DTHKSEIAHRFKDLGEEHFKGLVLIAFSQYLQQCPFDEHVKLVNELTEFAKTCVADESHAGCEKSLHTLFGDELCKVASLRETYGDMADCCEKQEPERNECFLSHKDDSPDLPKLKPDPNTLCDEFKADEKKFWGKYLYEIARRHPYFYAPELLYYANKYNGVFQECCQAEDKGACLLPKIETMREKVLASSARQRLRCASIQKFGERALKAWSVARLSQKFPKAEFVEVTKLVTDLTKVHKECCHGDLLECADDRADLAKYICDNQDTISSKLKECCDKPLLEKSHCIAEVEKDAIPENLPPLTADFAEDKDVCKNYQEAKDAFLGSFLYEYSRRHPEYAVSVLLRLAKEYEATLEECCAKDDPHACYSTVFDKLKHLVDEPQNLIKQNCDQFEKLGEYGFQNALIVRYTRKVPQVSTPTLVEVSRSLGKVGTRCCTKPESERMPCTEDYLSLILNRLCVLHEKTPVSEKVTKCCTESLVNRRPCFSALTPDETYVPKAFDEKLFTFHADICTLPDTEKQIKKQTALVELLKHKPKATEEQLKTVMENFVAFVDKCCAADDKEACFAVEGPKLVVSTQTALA
- Assay notes: fluorescence quenching of BSA, binding parameters
- Study conditions: 298 K; τ0 = 10^−8 s
Property label: K q (quenching rate constant)
I'd appreciate it if you included the unit after the number.

CC(=O)N(C(=O)c1cc(F)cc(F)c1)c1ccc(N=Cc2cc3ccccc3o2)cc1 = 2.13e+12 M⁻¹ s⁻¹
CC(=O)N(C(=O)c1cc(F)c(F)c(F)c1)c1ccc(N=Cc2cc3ccccc3o2)cc1 = 7.98e+12 M⁻¹ s⁻¹
CC(=O)N(C(=O)c1ccc(O)cc1)c1ccc(N=Cc2cc3ccccc3o2)cc1 = 2.39e+12 M⁻¹ s⁻¹

Field: K q (quenching rate constant). Fill in for each record below.
1. COc1ccc(C(=O)N(C(C)=O)c2ccc(N=Cc3cc4ccccc4o3)cc2)cc1
2. CC(=O)N(C(=O)c1cc(F)ccc1F)c1ccc(N=Cc2cc3ccccc3o2)cc1
3. CC(=O)N(C(=O)c1ccccc1)c1ccc(N=Cc2cc3ccccc3o2)cc1

Found:
7.4e+12 M⁻¹ s⁻¹
9.96e+12 M⁻¹ s⁻¹
1.93e+12 M⁻¹ s⁻¹

* * *

Property label: melting point (°C)
Answers are plain numbers, in °C.

Each molecule below has a reported value. Please supply its melting point.
1. CC(=O)N(C(=O)c1ccccc1C)c1ccc(N=Cc2cc3ccccc3o2)cc1 [Compound 5f]
2. CC(=O)N(C(=O)c1cc(F)cc(F)c1)c1ccc(N=Cc2cc3ccccc3o2)cc1 [Compound 5h]
3. CC(=O)N(C(=O)c1cc(F)c(F)c(F)c1)c1ccc(N=Cc2cc3ccccc3o2)cc1 [Compound 5g]
4. CC(=O)N(C(=O)c1ccccc1)c1ccc(N=Cc2cc3ccccc3o2)cc1 [Compound 5c]
5. CC(=O)N(C(=O)Cc1ccccc1)c1ccc(N=Cc2cc3ccccc3o2)cc1 [Compound 5b]
6. CC(=O)N(C(=O)c1ccc(O)cc1)c1ccc(N=Cc2cc3ccccc3o2)cc1 [Compound 5j]
7. CC(=O)N(C(=O)c1ccc([N+](=O)[O-])cc1)c1ccc(N=Cc2cc3ccccc3o2)cc1 [Compound 5e]

Found:
1. 187
2. 187
3. 190
4. 192
5. 193
6. 213
7. 182

Give melting point for each of the items listed below.
1. COc1ccc(C(=O)N(C(C)=O)c2ccc(N=Cc3cc4ccccc4o3)cc2)cc1 [Compound 5i]
2. CC(=O)N(C(=O)c1cc(F)ccc1F)c1ccc(N=Cc2cc3ccccc3o2)cc1 [Compound 5a]

Found:
[205, 197]

* * *

- Study system: bovine serum albumin (BSA) (Bos taurus)
- Construct: Bovine serum albumin (BSA), one of the major components in plasma protein; purchased Sigma Aldrich Bangalore
- Assay notes: fluorescence quenching of BSA, binding parameters
- Study conditions: 298 K
- Method: All the chemicals and solvents were of AR grade. Solvents were used as supplied by commercial sources without any further purification. BSA (essentially fatty-acid-free) was purchased from Sigma Aldrich Bangalore and stored in refrigerator at 4.0°C. […] For each of the […] active compounds (5a, 5c, 5g, 5h, 5i, and 5j), the binding parameters with BSA molecules were measured by fluorescence spectroscopy. […] Fluorescence intensity was measured (excitation at 280 nm and emission at 340 nm). […]
Property label: n (number of binding sites)

Before answering, review these 3 worked examples.
CC(=O)N(C(=O)c1ccc(O)cc1)c1ccc(N=Cc2cc3ccccc3o2)cc1 = 0.961
CC(=O)N(C(=O)c1ccccc1)c1ccc(N=Cc2cc3ccccc3o2)cc1 = 0.855
COc1ccc(C(=O)N(C(C)=O)c2ccc(N=Cc3cc4ccccc4o3)cc2)cc1 = 1.208

Record n (number of binding sites) for all entries; do not skip any.
1. CC(=O)N(C(=O)c1cc(F)cc(F)c1)c1ccc(N=Cc2cc3ccccc3o2)cc1
2. CC(=O)N(C(=O)c1cc(F)c(F)c(F)c1)c1ccc(N=Cc2cc3ccccc3o2)cc1
3. CC(=O)N(C(=O)c1cc(F)ccc1F)c1ccc(N=Cc2cc3ccccc3o2)cc1

Found:
[1.136, 1.281, 1.180]

Just for reference, paper PMC3767324 is where these values come from.
